target: mushroom tyrosinase; assay: Mushroom tyrosinase inhibitory assay (L-tyrosine or L-DOPA as substrate); type: biochemical, Agaricus bisporus; details: L-tyrosine substrate; mean ± SEM of triplicate experiments; read-out: IC50 (μM), L-tyrosine as substrate (monophenolase activity)
Quantity kind: IC50 (µM)

Worked examples, 4 molecules total:
# Entry smiles, Experimental system, Reported value
measured = [
    ("O=C1/C(=C/c2ccc(O)cc2)Cc2ccccc21", "mushroom tyrosinase", 39.7),
    ("O=C1/C(=C/c2ccc(O)cc2O)Cc2ccccc21", "mushroom tyrosinase", 0.034),
    ("COc1ccc(/C=C2\\Cc3ccccc3C2=O)cc1O", "mushroom tyrosinase", 5),
    ("COc1cc(/C=C2\\Cc3ccccc3C2=O)ccc1O", "mushroom tyrosinase", 73.5),
]

I = COc1cc(/C=C2\Cc3ccccc3C2=O)cc(OC)c1O
II = O=C1/C(=C/c2ccc(O)c(O)c2)Cc2ccccc21
Query: I'm curious, which of these has a smaller IC50 number: I or II ? Write down the label attached to your selection.
Reply: II
